B1: Storkhead-box protein 2, residues 64 to 141; numbered along this chain, Q9P2F5 (parent)
chain: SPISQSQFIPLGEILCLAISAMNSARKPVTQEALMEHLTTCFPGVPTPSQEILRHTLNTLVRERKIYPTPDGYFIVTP

Variants of: B1
Assay: abundance fitness (aPCA) (normalised: wild type 0, dead -1); higher = more abundant; growth selection in yeast, the domain comes from the species named
Conditions: Homo sapiens
Endpoint label: abundance fitness

>>> df
    variant_label     endpoint_label  experimental_result
 0           P28G  abundance fitness               -0.133
 1           K27P  abundance fitness               -0.689
 2            I3M  abundance fitness               -0.047
 3           L15T  abundance fitness                0.059
 4           A25F  abundance fitness                -0.08
 5           L57Q  abundance fitness               -0.924
 6           S20H  abundance fitness               -0.219
 7           A33I  abundance fitness               -0.274
 8           N58Q  abundance fitness                -0.03
 9           L57W  abundance fitness               -0.269
10           V29H  abundance fitness               -0.496
11           T47R  abundance fitness               -0.018
12           D71W  abundance fitness               -0.189
13           Q50F  abundance fitness                0.013
14           K65M  abundance fitness               -0.171
15            Q5C  abundance fitness               -0.025
16           C16P  abundance fitness               -0.124
17           P70D  abundance fitness                0.091
18           L15Y  abundance fitness               -0.252
19           V76S  abundance fitness                0.092
20           N58A  abundance fitness                0.033
21           M35Y  abundance fitness               -0.164
